Biological target: T1, monomeric cynomolgus monkey CSF1R ectodomain protein (cynomolgus monkey, UniProt P07333 20-517 (human entry))
T1 construct: also called monomeric cyno CSF1R; Cyno CSF1R
T1 chain: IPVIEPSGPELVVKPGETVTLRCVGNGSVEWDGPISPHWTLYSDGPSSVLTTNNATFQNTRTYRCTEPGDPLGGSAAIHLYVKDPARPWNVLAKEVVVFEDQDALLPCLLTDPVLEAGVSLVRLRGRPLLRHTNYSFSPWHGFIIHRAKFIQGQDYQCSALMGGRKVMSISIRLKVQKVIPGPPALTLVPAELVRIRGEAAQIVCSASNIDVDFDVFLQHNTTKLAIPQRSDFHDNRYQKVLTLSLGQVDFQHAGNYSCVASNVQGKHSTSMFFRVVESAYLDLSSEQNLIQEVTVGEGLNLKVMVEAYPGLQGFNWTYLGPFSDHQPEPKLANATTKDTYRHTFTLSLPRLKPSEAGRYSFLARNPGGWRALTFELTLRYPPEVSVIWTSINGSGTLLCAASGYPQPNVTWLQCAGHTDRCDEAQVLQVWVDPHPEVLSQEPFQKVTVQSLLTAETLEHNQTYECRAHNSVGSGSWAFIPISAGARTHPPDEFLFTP
Test: SPR Biacore, IgG captured, monomeric CSF1R analyte
MEASUREMENT KIND: kon (M⁻¹ s⁻¹)
Please reply with the bare figure in M⁻¹ s⁻¹ and do not write the unit itself.

Some entries whose results are on file:
>>> quantitative_readout("29H09 (antibody, human IgG4, V domains shown, Library-derived clone, tested as human IgG4(S228P)/Ckappa IgG; framework residue limits counted on the grafts) VH: QVQLVQSGAEVKKPGSSVKVSCKASGYTFTSYYMIWVRQAPGQGLEWMGDINPYNGGANYAQKFQGRVTITADESTSTAYMELSSLRSEDTAVYYCAREGPYFSNLYVMDYWGQGTLVTVSS VL: EIVLTQSPATLSLSPGERATLSCRASQSVSYEGENYLNWYQQKPGQAPRLLIYAASNRATGIPARFSGSGSGTDFTLTISSLEPEDFAVYYCQLSNEDLLTFGGGTKVEIK")
550000
>>> quantitative_readout("26B07 (antibody, human IgG4, V domains shown, Library-derived clone, tested as human IgG4(S228P)/Ckappa IgG; framework residue limits counted on the grafts) VH: QVQLVQSGAEVKKPGSSVKVSCKASGYTFSSYYMIWVRQAPGQGLEWMGDINPYNGGANYAQKFQGRVTITADESTSTAYMELSSLRSEDTAVYYCAREGPYFSNLYVMDYWGQGTLVTVSS VL: EIVLTQSPATLSLSPGERATLSCRASQSVEYQGDNYLNWYQQKPGQAPRLLIYAASNRATGIPARFSGSGSGTDFTLTISSLEPEDFAVYYCQLSNEDLLTFGGGTKVEIK")
310000

Okay, now this binder:
Ask | Returns the measured kon for the input binder. Input: MH6 (antibody, V domains shown, Designer clone, human IgG4(S228P)/Ckappa IgG) VH: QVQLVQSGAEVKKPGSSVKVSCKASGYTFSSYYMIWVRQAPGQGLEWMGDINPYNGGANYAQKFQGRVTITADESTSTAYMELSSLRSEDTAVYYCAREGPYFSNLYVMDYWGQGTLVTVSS VL: EIVLTQSPATLSLSPGERATLSCRASQSVSYEGENYLAWYQQKPGQAPRLLIYAASNRATGIPARFSGSGSGTDFTLTISSLEPEDFAVYYCQLSNQDLLTFGGGTKVEIK
Reply | 510000

Reference source for all entries: patent US20210301026A1
